- Tested on: RAW-Dual
- test.method.notes: NF-kB SEAP reporter activity, fold change vs agonist alone; cytotoxicity flag (confluency mask): cytotoxic (confluency <70% of control); higher = enhanced NF-kB activity
- condition: agonist: Pam3CSK4 (TLR2/1) 0.1 ug/mL
Over roughly 2,900 compounds, “NF-kB SEAP reporter activity, fold change vs agonist alone” has its median near 0.99; the highest 2% begin near 2.6. For the sample, the highest values were picked, then their nearest neighbours and some compounds at random.
Recorded measurements of NF-kB SEAP reporter activity, one per entry

compound: C=CC(=O)Nc1cc(Nc2nccc(-c3cn(C)c4ccccc34)n2)c(OC)cc1N(C)CCN(C)C.CS(=O)(=O)O (library stock concentration (final ~1000-fold dilution): 10 mM)
NF-kB SEAP reporter activity: 0.898
//
compound: CCOC(=O)C1=C(COCCN)NC(C)=C(C(=O)OC)C1c1ccccc1Cl.O=S(=O)(O)c1ccccc1 (configuration not stated) (library stock concentration (final ~1000-fold dilution): 10 mM)
NF-kB SEAP reporter activity: 0.924
//
compound: Cc1[nH]c(/C=C2\C(=O)Nc3ccc(S(=O)(=O)Cc4c(Cl)cccc4Cl)cc32)c(C)c1C(=O)N1CCCC1CN1CCCC1 (configuration not stated) (library stock concentration (final ~1000-fold dilution): 10 mM)
NF-kB SEAP reporter activity: 0.886
//
compound: COc1cccc2c1C(=O)c1c(O)c3c(c(O)c1C2=O)CC(O)(C(C)=O)CC3OC1CC(N)C(O)C(C)O1.Cl (configuration not stated) (library stock concentration (final ~1000-fold dilution): 10 mM)
NF-kB SEAP reporter activity: 0.195
//
compound: CN1CCN(Cc2ccc(NC(=O)Nc3ccc(Oc4ccnc(N)n4)cc3)cc2C(F)(F)F)CC1 (library stock concentration (final ~1000-fold dilution): 10 mM)
NF-kB SEAP reporter activity: 0.129
//
compound: COc1ncc(-c2cc(-c3ncc(CN4CC(C)OC(C)C4)o3)c3cn[nH]c3c2)cc1NS(C)(=O)=O (configuration not stated) (library stock concentration (final ~1000-fold dilution): 10 mM)
NF-kB SEAP reporter activity: 1.39
//
compound: Fc1ccc(Nc2nc(Nc3ccc(-c4nc5ccccc5[nH]4)cc3)nc(N3CCOCC3)n2)cc1 (library stock concentration (final ~1000-fold dilution): 10 mM)
NF-kB SEAP reporter activity: 0.25

----------
- System: RAW-Dual
- test.method.notes: NF-kB SEAP reporter activity, fold change vs agonist alone; cytotoxicity flag (confluency mask): not cytotoxic; higher = enhanced NF-kB activity
- condition: agonist: Pam2CSK4 (TLR2/6) 0.1 ug/mL
The full ranking holds about 2,900 compounds; the median of “NF-kB SEAP reporter activity, fold change vs agonist alone” is about 0.99, and the highest 2% start at about 2.6. The sample as a whole holds a higher share of the highest values than the screen did.
Recorded measurements of NF-kB SEAP reporter activity, one per entry

compound: CNCc1ccc(-c2cc(-c3nc(-c4ccc(S(=O)(=O)C(C)C)cc4)cnc3N)on2)cc1 (library stock concentration (final ~1000-fold dilution): 10 mM)
NF-kB SEAP reporter activity: 0.871

compound: CC(Nc1cc(F)cc(F)c1)c1cc(C(=O)N(C)C)cc2c(=O)cc(N3CCOCC3)oc12 (stereo not drawn) (library stock concentration (final ~1000-fold dilution): 10 mM)
NF-kB SEAP reporter activity: 1.02

compound: COc1cc2c(OC3OC(CO)C4OC(C)(C)OC4C3O)c3c(c(-c4ccc5c(c4)OCO5)c2cc1OC)C(=O)OC3 (stereo not drawn) (library stock concentration (final ~1000-fold dilution): 10 mM)
NF-kB SEAP reporter activity: 1.95
